Entries below carry reported IC50 on HPK1 (Homo sapiens).
Sequence (Q92918 whole entry): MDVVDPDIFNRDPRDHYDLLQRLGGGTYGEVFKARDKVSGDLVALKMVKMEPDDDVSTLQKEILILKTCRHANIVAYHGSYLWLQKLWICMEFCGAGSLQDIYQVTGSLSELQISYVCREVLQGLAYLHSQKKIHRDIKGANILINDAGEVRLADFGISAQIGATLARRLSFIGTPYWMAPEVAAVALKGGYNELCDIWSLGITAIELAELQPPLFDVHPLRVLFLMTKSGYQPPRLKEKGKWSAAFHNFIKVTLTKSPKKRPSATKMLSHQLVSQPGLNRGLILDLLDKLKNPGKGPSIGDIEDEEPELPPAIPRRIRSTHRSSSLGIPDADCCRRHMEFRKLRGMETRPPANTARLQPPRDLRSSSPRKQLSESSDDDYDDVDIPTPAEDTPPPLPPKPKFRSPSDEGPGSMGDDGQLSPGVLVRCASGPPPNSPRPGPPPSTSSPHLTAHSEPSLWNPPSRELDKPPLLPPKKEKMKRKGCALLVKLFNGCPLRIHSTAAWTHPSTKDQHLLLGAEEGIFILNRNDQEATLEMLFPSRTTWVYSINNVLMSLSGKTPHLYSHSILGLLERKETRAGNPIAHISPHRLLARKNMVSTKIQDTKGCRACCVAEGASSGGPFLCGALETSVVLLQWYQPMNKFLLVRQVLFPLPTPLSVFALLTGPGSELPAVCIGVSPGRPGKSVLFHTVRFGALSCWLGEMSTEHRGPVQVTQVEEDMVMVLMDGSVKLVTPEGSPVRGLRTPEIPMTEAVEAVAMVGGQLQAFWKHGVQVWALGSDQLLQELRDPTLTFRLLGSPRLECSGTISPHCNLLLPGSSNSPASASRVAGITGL

CNCc1cc(F)c(-c2cc3c(-c4ccc5c(c4)OCC4CN(C)CCN54)n[nH]c3cc2C#N)c(OC)c1 (centres unmarked) [Compound 20] : ≤ 10 nM
CN1CCN2c3ccc(-c4cnc5[nH]cc(-c6ccc(C(=O)N7CC(O)C7)cc6)c5n4)cc3OCC2C1 (centres unmarked) [Compound 113] : ≤ 10 nM
CN1CCN2c3ccc(-c4n[nH]c5cc(C#N)c(-c6ccn7ncnc7c6)cc45)cc3OCC2C1 (centres unmarked) [Compound 60] : ≤ 10 nM

Go through the items and report each one's IC50.
1. COc1ccccc1-c1cc2c(-c3ccc4c(c3)OCC3CN(C)CCN43)n[nH]c2cc1C#N (centres unmarked) [Compound 2]
2. CCN1CCN2c3ccc(-c4n[nH]c5cc(C#N)c(-c6c(C)cc(CNC)cc6F)cc45)cc3OCC2C1 (centres unmarked) [Compound 124]
3. CN1CCN2c3ccc(-c4cnc5[nH]nc(-c6ccc(C(=O)N7CC(O)C7)cc6)c5c4)cc3OCC2C1 (centres unmarked) [Compound 116]
4. CNCc1cc(C)c(-c2nc3c(-c4ccc5c(c4)OCC4CN(C)CCN54)n[nH]c3cc2C#N)c(F)c1 (centres unmarked) [Compound 83]

Output:
1. ≤ 10 nM
2. ≤ 10 nM
3. 10 to 100 nM
4. ≤ 10 nM

* * *

# TESTED ON: hERG potassium channel (Homo sapiens)
# Sequence (Q12809 whole entry): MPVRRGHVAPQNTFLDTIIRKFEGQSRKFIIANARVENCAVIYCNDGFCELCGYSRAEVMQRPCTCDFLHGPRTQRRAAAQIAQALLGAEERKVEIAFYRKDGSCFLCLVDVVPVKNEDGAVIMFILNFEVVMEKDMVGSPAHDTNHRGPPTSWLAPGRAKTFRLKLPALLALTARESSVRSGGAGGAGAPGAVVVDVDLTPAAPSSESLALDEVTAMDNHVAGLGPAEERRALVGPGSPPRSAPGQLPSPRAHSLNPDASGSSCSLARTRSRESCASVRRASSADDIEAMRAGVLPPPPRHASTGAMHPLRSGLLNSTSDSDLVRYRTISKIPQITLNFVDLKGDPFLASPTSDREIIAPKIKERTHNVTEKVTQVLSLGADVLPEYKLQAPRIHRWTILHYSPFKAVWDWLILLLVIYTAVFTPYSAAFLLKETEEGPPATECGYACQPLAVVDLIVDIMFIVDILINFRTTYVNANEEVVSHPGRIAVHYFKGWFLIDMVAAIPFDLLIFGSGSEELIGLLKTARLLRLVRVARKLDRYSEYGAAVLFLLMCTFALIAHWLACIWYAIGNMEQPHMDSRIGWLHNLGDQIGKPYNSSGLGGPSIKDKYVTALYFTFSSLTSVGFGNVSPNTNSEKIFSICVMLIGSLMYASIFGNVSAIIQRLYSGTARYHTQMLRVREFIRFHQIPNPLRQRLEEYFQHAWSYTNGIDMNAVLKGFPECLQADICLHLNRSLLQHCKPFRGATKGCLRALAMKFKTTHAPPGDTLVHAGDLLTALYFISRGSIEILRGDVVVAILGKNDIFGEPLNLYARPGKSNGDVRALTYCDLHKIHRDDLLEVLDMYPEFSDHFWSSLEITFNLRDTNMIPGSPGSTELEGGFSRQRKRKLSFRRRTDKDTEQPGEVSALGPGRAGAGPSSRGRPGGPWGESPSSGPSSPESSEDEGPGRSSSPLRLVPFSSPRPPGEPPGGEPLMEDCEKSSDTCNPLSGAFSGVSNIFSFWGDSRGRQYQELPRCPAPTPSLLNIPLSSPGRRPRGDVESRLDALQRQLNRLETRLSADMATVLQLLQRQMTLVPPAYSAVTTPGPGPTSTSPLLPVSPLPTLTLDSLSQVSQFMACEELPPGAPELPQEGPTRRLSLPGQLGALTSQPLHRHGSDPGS
# MEASUREMENT NOTES: Inhibitory effect against hERG channel activity (manual patch clamp, HEK293 cells stably expressing hERG)
# CONDITIONS: HEK293 cell line stably expressing hERG
# Description: Example 131: Assay of Inhibitory Effect of Compound Against hERG Channel Activity The HEK293 cell line stably expressed by the hERG potassium channel was adopted for detection using manual patch clamp. […] After the hERG current stabilized, administration was started and the current detected in compound-free extracellular fluid for each cell served as its own control group, and multiple cells were repeatedly tested independently. […]
Would you mind telling me the reported pIC50 of each entry?
One number for each entry, as −log10 of the molar value.

CN1CCN2c3ccc(-c4cnc5[nH]cc(-c6ccc(C(=O)N7CC(N(C)C)C7)cc6)c5n4)cc3OCC2C1 (centres unmarked) : 4.45

Go through the items and report each one's pIC50.
1. Cc1ccncc1-c1cc2c(-c3ccc4c(c3)OCC3CN(C)CCN43)n[nH]c2cc1C#N (centres unmarked)
2. CNCc1cc(F)c(-c2cc3c(-c4ccc5c(c4)OCC4CN(C)CCN54)n[nH]c3cc2C#N)c(F)c1 (centres unmarked)
3. CN1CCN2c3ccc(-c4n[nH]c5cnc(-c6cccc(F)c6F)cc45)cc3OCC2C1 (centres unmarked)

Output:
4.76
4.93
4.29

Go through the items and report each one's pIC50.
1. CN1CCN2c3ccc(-c4n[nH]c5cc(C#N)c(-c6c(F)cc(C(=O)N7CC(N(C)C)C7)cc6F)cc45)cc3OCC2C1 (centres unmarked)
2. COc1cccc(F)c1-c1cc2c(-c3ccc4c(c3)OCC3CN(C)CCN43)n[nH]c2cc1C#N (centres unmarked)
3. COc1ccc(F)c(F)c1-c1cc2c(-c3ccc4c(c3)OCC3CN(C)CCN43)n[nH]c2cn1 (centres unmarked)
4. COc1ccc(F)c(F)c1-c1cc2c(-c3ccc4c(c3)OCC3CN(C)CCN43)n[nH]c2cc1C#N (centres unmarked)

Output:
[4.50, 4.75, 4.39, 4.63]
